From: ChEMBL document CHEMBL1146891

- Test system: Oryctolagus cuniculus
- methodSummary: Inhibition of thrombus formation in iv dosed rabbit arterio-venous shunt model
- Type: functional, organism-based
- measurementConditions: Oryctolagus cuniculus
readoutLabel: IC50 (nM)
Numbers only, in nM.

For record "Cc1nc2c(C(F)(F)F)nn(-c3ccc4onc(N)c4c3)c2c(=O)n1-c1ccc(-c2ccccc2CN(C)C)cc1" the listed IC50 is 290

* * *

Please provide measured Ki for the entries that follow.
- studyTarget: Urokinase-type plasminogen activator (Homo sapiens)

Give me Ki for each of these compounds, listed below.
1. Nc1noc2ccc(-n3nc(C(F)(F)F)c4c3C(=O)N(c3ccc(-c5ccccc5CN5CC[C@@H](O)C5)cc3)CN4)cc12
2. Cc1nn(-c2ccc3onc(N)c3c2)c2c(=O)n(-c3ccc(-c4ccccc4CN(C)C)cc3)c(C)nc12
3. Cc1nc2c(C(F)(F)F)nn(-c3ccc4onc(N)c4c3)c2c(=O)n1-c1ccc(-c2ccccc2CN(C)C)cc1
4. Cc1nn(-c2ccc3onc(N)c3c2)c2c(=O)n(-c3ccc(-c4ccccc4CN4CC[C@@H](O)C4)cc3)c(C)nc12

1. > 13 µM
2. > 13 µM
3. > 40 µM
4. > 13 µM
